# study_system: CFTR G551D mutant (Homo sapiens, UniProt P13569, G551D)
# Sequence (P13569 whole entry G551D): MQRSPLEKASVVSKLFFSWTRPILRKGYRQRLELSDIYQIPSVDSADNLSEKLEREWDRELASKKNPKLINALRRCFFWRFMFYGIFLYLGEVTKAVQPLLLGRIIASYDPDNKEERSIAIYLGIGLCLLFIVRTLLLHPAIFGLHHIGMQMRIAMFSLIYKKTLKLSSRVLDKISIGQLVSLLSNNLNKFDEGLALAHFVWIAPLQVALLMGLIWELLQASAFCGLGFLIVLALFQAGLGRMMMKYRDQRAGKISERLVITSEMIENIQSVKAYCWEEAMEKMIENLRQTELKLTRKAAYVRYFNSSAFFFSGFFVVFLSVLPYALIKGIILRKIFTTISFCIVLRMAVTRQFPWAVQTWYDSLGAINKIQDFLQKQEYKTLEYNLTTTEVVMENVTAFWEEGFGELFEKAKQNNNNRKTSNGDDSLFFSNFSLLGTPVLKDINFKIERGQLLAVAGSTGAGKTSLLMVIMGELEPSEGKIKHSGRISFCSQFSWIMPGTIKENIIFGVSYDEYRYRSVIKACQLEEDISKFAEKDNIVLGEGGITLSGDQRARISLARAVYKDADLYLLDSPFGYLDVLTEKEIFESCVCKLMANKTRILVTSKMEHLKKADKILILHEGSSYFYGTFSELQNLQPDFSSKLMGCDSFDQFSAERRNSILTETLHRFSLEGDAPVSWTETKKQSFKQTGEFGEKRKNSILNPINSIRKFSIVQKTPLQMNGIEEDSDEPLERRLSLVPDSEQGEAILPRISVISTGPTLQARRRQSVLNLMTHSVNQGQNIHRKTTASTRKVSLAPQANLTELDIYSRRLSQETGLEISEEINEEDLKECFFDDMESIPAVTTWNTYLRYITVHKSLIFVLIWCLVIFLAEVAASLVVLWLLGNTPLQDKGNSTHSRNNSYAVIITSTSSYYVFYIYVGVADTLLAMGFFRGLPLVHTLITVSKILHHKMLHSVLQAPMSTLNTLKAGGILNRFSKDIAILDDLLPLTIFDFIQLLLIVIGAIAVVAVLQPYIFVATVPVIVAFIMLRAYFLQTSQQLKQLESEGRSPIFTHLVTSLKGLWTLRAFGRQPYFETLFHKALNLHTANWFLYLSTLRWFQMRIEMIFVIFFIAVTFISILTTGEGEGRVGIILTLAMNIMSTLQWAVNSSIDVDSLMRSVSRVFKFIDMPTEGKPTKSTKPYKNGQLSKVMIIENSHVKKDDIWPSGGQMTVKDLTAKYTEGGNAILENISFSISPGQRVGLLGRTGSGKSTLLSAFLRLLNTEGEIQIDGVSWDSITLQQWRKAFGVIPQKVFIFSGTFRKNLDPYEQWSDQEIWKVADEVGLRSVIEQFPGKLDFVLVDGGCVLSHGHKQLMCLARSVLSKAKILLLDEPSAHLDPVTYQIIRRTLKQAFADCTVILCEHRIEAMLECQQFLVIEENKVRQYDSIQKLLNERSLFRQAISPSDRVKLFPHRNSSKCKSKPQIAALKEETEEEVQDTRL
# experimental_protocol: YFP-halide influx assay for the CFTR-G551D mutation (HEK293 cells)
# test_parameters: forskolin 10.67 μM
pEC50: −log10 of the molar value.
measurement_name: pEC50

Example cases with answers are listed next.
INSERT INTO assay_data (compound, observed) VALUES
  ('CN(Cc1ccc(F)cc1F)S(=O)(=O)c1cnc(C(=O)NCC(O)C(F)(F)F)c(N)c1 (centres unmarked)', 6.38),
  ('Nc1cc(S(=O)(=O)N2CCC(F)(F)CC2)cnc1C(=O)NCC(O)C(F)(F)F (centres unmarked)', 5.71),
  ('COCCN(C1CC1)S(=O)(=O)c1cnc(C(=O)NCC(O)C(F)(F)F)c(N)c1 (centres unmarked)', 5.77),
  ('CC1(CCNC(=O)c2ncc(S(=O)(=O)c3ccc(OC(F)(F)F)cc3)cc2N)CC1', 6.08),
  ('Nc1cc(S(=O)(=O)c2ccc(OC(F)(F)F)cc2)cnc1C(=O)NCC(O)CF (centres unmarked)', 6.00),
  ('Nc1cc(S(=O)(=O)c2ccc(OC(F)(F)F)cc2)cnc1C(=O)N1CC(OCC(F)F)C1', 6.26),
  ('Nc1cc(S(=O)(=O)N2CCC(F)CC2)cnc1C(=O)NCC(O)C(F)(F)F (centres unmarked)', 5.90),
  ('Nc1cc(S(=O)(=O)c2ccc(OC(F)(F)F)cc2)cnc1C(=O)N[C@@H]1CCOc2ccccc21', 6.08),
  ('CC1CCOCC1CNC(=O)c1ncc(S(=O)(=O)c2ccc(OC(F)(F)F)cc2)cc1N (centres unmarked)', 5.86),
  ('COCCC(C)(O)CNC(=O)c1ncc(S(=O)(=O)c2ccc(C(F)(F)F)cc2)cc1N (centres unmarked)', 5.81);

I: Nc1cc(S(=O)(=O)c2ccc(C(F)(F)F)cc2F)cnc1C(=O)N1CC(C(F)(F)F)C1
II: COCCOCC(O)CNC(=O)c1ncc(S(=O)(=O)c2ccc(C(F)(F)F)cc2)cc1N (centres unmarked)
Inquiry: Of I versus II , which is the one with smaller reported pEC50? Field: selected label. Fill in the label of the entry you choose.
Reply text: II

P: CC(C)(O)CNC(=O)c1ncc(S(=O)(=O)c2ccc(OC(F)(F)F)cc2)cc1N
Q: CC(C)(O)C1CN(C(=O)c2ncc(S(=O)(=O)c3ccc(C(F)(F)F)cc3F)cc2N)C1
Inquiry: # argmax over pEC50 for candidates P and Q Field: selected label. Fill in the label of the entry you choose.
Reply text: Q

1: Nc1cc(S(=O)(=O)c2ccc(C(F)(F)F)cc2F)cnc1C(=O)NCC(O)COCC(F)(F)F (centres unmarked)
2: CN(Cc1ccc(F)cc1)S(=O)(=O)c1cnc(C(=O)NCC(O)C(F)(F)F)c(N)c1 (centres unmarked)
3: COCC1(C)CN(C(=O)c2ncc(S(=O)(=O)c3ccc(C(F)(F)F)cc3)cc2N)C1
4: CC(C)OC[C@H](O)CNC(=O)c1ncc(S(=O)(=O)c2ccc(C(F)(F)F)cc2)cc1N
5: Nc1cc(S(=O)(=O)c2ccc(C(F)(F)F)cc2)cnc1C(=O)NCCO
Inquiry: Reorder the items by pEC50, least to greatest. Sort and list the labels as requested.
Reply text: 5, 3, 2, 1, 4

1: Nc1cc(S(=O)(=O)c2ccc(C(F)(F)F)cc2)c(C2CC2)nc1C(=O)NCCO
2: CC(C)OCCNC(=O)c1ncc(S(=O)(=O)c2ccc(C(F)(F)F)cc2)cc1N
Inquiry: Of 1 versus 2 , which is the one with smaller reported pEC50? Field: selected label. Fill in the label of the entry you choose.
Reply text: 2
(2: 6.06, 1: 6.29)

---

# study_system: CFTR ΔF508 mutant (Homo sapiens, UniProt P13569, DEL508-508)
# Construct: expressed in transfected cells; host or cells: CFBE41o- cells, adenoviral transduction
# Sequence (P13569 with tags, fused parts or gaps DEL508-508): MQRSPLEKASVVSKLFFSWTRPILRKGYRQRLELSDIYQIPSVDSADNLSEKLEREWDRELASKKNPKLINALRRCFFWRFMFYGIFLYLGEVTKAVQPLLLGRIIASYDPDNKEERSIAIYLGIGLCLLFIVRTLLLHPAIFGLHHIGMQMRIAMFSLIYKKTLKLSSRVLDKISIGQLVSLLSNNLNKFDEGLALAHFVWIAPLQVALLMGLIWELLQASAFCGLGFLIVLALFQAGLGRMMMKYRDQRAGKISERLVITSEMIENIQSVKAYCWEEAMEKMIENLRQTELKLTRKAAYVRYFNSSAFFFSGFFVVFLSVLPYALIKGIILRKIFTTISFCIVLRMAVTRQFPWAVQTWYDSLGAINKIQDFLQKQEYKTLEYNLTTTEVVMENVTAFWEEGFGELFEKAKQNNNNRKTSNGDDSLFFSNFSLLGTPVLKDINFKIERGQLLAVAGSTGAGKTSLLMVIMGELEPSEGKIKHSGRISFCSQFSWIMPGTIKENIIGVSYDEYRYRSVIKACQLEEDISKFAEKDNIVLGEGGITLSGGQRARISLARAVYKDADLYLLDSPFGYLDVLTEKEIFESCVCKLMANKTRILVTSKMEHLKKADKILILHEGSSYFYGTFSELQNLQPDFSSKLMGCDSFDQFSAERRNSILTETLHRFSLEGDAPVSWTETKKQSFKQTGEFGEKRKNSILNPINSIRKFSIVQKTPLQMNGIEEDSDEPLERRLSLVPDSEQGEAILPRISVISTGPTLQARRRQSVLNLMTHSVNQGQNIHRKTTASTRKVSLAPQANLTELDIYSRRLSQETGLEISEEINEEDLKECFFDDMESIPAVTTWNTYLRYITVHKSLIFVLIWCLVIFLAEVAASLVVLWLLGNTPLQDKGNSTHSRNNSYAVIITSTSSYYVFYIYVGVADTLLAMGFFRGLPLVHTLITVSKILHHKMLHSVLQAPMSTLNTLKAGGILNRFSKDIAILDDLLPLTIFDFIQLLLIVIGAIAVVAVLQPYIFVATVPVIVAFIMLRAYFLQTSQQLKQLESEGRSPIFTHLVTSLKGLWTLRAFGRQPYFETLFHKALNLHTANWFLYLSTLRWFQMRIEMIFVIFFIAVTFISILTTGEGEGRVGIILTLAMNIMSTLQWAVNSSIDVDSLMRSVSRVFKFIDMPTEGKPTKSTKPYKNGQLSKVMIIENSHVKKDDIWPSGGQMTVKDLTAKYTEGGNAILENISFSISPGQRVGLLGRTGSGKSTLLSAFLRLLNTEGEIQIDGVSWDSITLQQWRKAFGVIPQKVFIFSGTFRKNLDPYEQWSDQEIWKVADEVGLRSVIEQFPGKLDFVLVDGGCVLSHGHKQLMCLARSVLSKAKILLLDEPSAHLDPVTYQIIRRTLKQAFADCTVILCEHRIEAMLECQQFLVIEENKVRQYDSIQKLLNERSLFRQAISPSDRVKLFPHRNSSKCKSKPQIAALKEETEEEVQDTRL
# experimental_protocol: YFP-halide influx assay for the CFTR-ΔF508 mutation (CFBE41o- cells)
# Format: cell-based
# test_parameters: forskolin 10.67 μM, from (1−F/F0) vs concentration plot
# Description: The YFP halide influx assay measured the functionality of the cystic fibrosis Transmembrane Conductance regulator (CFTR) channels in the cystic fibrosis bronchial epithelium cell line CFBE41o-. The assay was used to evaluate the capacity of compounds to increase the open probability of existing CFTR channels in the membrane. […] The I-induced quenching of fluorescence was recorded on an immediately after injection of iodide for 2 minutes on an FDSS/μCell (Hamamatsu). […]
pEC50: −log10 of the molar value.
measurement_name: pEC50

Example cases with answers are listed next.
INSERT INTO results (molecule, measurement_name, observed) VALUES
  ('Nc1cc(S(=O)(=O)c2ccc(OC(F)(F)F)cc2)cnc1C(=O)NCC(O)C(F)F (centres unmarked)', 'pEC50', 8.77),
  ('C[C@H](O)CNC(=O)c1nc(-c2ccc(F)cc2)c(S(=O)(=O)C2CCCC2)cc1N', 'pEC50', 6.79);

P: Nc1cc(S(=O)(=O)N2CCC(F)(F)CC2)cnc1C(=O)NCC(O)C(F)(F)F (centres unmarked)
Q: Nc1cc(S(=O)(=O)c2ccc(C(F)(F)F)cc2)cnc1C(=O)NC[C@@H](O)C(F)(F)F
Inquiry: # argmax over pEC50 for candidates P and Q Field: selected label. Fill in the label of the entry you choose.
Reply text: Q
(Q: 8.51, P: 7.98)

I: Nc1cc(S(=O)(=O)c2ccc(OC(F)(F)F)cc2)cnc1C(=O)N1CCC(O)C1 (centres unmarked)
II: CC(C)Oc1ccc(S(=O)(=O)c2cnc(C(=O)NCC(O)C(F)(F)F)c(N)c2)cc1 (centres unmarked)
Inquiry: Of I versus II , which is the one with smaller reported pEC50? Field: selected label. Fill in the label of the entry you choose.
Reply text: I

---

# study_system: CFTR G551D mutant (Homo sapiens, UniProt P13569, G551D)
# Construct: expressed in transfected cells; host or cells: HEK293 cells, reverse transfection with plasmids
# experimental_protocol: YFP-halide influx assay for the CFTR-G551D mutation (HEK293 cells)
# Format: cell-based
# test_parameters: forskolin 10.67 μM
measurement_name: % Activation (%)

INSERT INTO results (compound, observed) VALUES
  ('CC1(O)CN(C(=O)c2ncc(S(=O)(=O)c3ccc(C(F)(F)F)cc3)cc2N)C1', 56.1);

A: Nc1cc(S(=O)(=O)c2ccc(OC(F)(F)F)cc2)cnc1C(=O)NCC1CC1
B: Nc1cc(S(=O)(=O)c2ccc(OC(F)(F)F)cc2)cnc1C(=O)N1CCC(O)C1 (stereo not shown)
C: C[C@H]1CCCN1S(=O)(=O)c1cnc(C(=O)NCc2nccc(=O)[nH]2)c(N)c1
Inquiry: Order these by % Activation, descending, and give the full ranking. Sort and list the labels as requested.
Reply text: A, B, C

---

# study_system: CFTR G551D mutant (Homo sapiens, UniProt P13569, G551D)
# Construct: expressed in transfected cells; host or cells: HEK293 cells, reverse transfection with plasmids
# experimental_protocol: YFP-halide influx assay for the CFTR-G551D mutation (HEK293 cells)
# Assay type: cell-based
# test_parameters: forskolin 10.67 μM
measurement_name: % Activation (%)

Example cases with answers are listed next.
INSERT INTO assay_data (compound, observed) VALUES
  ('Nc1cc(S(=O)(=O)c2ccc(C(F)(F)F)cc2F)cnc1C(=O)NC[C@H]1CCOC1 [Compound 106]', 42.4),
  ('CC(C)(C)c1ccc(S(=O)(=O)c2cnc(C(=O)NCC(O)C(F)(F)F)c(N)c2)cc1 (centres unmarked) [Compound 247]', 98.7),
  ('COCCC(C)(O)CNC(=O)c1ncc(S(=O)(=O)c2ccc(C(F)(F)F)cc2)cc1N (centres unmarked) [Compound 167]', 71.5),
  ('COCCOc1nc(C(=O)NC[C@H](C)O)c(N)cc1S(=O)(=O)c1ccc(OC(F)(F)F)cc1 [Compound 288]', 78.3),
  ('CC(C)OCC(O)CNC(=O)c1ncc(S(=O)(=O)c2ccc(C(F)(F)F)cc2)cc1N (centres unmarked) [Compound 92]', 79.0);

a: CC1CC(C)CN(S(=O)(=O)c2cnc(C(=O)NCC(O)C(F)(F)F)c(N)c2)C1 (centres unmarked) [Compound 185]
b: CC(C)c1ccc(S(=O)(=O)c2cnc(C(=O)NCC(O)C(F)(F)F)c(N)c2)cc1 (centres unmarked) [Compound 246]
c: Nc1cc(S(=O)(=O)c2cccc(F)c2)cnc1C(=O)N1CC(O)(C(F)(F)F)C1 [Compound 256]
Inquiry: Reorder the items by % Activation, least to greatest. Sort and list the labels as requested.
Reply text: c, a, b

---

# study_system: CFTR ΔF508 mutant (Homo sapiens, UniProt P13569, DEL508-508)
# Construct: expressed in transfected cells; host or cells: CFBE41o- cells, adenoviral transduction
# experimental_protocol: YFP-halide influx assay for the CFTR-ΔF508 mutation (CFBE41o- cells)
# Type: cell-based
# test_parameters: forskolin 10.67 μM, from (1−F/F0) vs concentration plot
pEC50: −log10 of the molar value.
measurement_name: pEC50

Example cases with answers are listed next.
INSERT INTO results (molecule, measurement_name, observed) VALUES
  ('Nc1cc(S(=O)(=O)c2ccc(OC(F)(F)F)cc2)cnc1C(=O)NCC(O)C1CCOCC1 (stereo not shown)', 'pEC50', 7.07),
  ('CCS(=O)(=O)c1cc(N)c(C(=O)NC[C@H](C)O)nc1-c1ccc(F)cc1', 'pEC50', 6.85);

1: Nc1cc(S(=O)(=O)c2ccc(OC(F)(F)F)cc2)cnc1C(=O)N1CC[C@@H](F)C1
2: CC(C)OCC(O)CNC(=O)c1ncc(S(=O)(=O)c2ccc(C(F)(F)F)cc2F)cc1N (stereo not shown)
Inquiry: Of 1 versus 2 , which is the one with smaller reported pEC50? Field: selected label. Fill in the label of the entry you choose.
Reply text: 1
